Recorded values, source patent US20250042994A1.

Biological target: T1, Human CD19-his protein (human, UniProt P15391 20-291)
T1 construct: bought protein; also called human CD19 protein; recombinant human CD19-His; not shown: His tag
T1 sequence (looked up): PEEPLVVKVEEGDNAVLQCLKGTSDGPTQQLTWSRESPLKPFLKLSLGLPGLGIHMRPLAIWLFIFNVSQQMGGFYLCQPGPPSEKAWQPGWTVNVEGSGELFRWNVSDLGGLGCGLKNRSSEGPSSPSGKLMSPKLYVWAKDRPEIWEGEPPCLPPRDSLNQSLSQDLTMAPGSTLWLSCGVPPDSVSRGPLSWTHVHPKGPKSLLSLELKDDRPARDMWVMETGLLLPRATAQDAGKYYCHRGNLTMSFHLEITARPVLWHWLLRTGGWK
Experiment: ELISA, antibody at 1.00 nM
Values of OD450 strictly less than 1 map to true (1), and values of at least 1 map to false (0).

| Binder | Label Value |
| --- | --- |
| F6.5.20 (antibody, human IgG1, V domains shown, human-murine chimeric antibody, human IgG1) VH: QVQLQQPGAELVKPGASVKLSCKASGYTFTSYWMQWVKQRPGQGLEWIGEIDPSDSYTNYNQKFKGKASLTVDTSSSTAYMQLSSLTSEDSAVYYCARWGLLRNYYVMDYWGQGTSVTVSS VL: EIVLTQSPTTMAASPGEKITITCSASSSISSNYLHWYQQKPGFSPKLLIYRTSNLASGVPARFSGSGSGTSYSLTIGTMEAEDVATYYCQQGSSIPRMLTFGAGTKLELK | true (1) |
| F3.126.15 (antibody, human IgG1, V domains shown, human-murine chimeric antibody, human IgG1) VH: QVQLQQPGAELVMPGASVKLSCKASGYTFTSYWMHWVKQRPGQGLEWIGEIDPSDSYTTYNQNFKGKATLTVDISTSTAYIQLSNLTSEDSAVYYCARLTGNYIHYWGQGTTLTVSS VL: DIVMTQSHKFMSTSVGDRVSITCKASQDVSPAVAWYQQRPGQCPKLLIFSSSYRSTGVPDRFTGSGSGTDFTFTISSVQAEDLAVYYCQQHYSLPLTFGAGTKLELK | true (1) |

# input Record F1-mab003 (antibody, human IgG1, V domains shown, human-murine chimeric antibody, human IgG1) VH: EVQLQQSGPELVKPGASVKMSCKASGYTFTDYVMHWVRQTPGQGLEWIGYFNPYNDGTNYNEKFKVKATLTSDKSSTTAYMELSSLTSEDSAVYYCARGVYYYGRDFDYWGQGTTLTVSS VL: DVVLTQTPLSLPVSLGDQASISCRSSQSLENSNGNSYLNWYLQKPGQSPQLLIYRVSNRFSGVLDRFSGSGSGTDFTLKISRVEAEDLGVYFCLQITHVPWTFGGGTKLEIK : is its OD450 strictly below 1?
# output false (0)

# input Record F5.11.2 (antibody, human IgG1, V domains shown, human-murine chimeric antibody, human IgG1) VH: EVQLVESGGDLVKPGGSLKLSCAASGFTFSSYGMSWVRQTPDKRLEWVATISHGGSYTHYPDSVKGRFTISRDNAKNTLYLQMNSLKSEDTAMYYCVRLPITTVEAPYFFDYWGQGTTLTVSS VL: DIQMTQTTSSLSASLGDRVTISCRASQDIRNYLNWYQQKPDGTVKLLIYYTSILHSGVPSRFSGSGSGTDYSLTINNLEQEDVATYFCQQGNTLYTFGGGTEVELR : is its OD450 strictly below 1?
# output false (0)

# input Record F4.276.12 (antibody, human IgG1, V domains shown, human-murine chimeric antibody, human IgG1) VH: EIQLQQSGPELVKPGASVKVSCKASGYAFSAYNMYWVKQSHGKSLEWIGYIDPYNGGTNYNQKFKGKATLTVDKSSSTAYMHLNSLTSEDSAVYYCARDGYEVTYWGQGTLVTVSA VL: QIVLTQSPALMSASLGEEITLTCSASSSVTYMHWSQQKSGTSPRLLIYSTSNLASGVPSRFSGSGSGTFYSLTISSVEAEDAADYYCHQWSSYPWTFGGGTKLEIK : is its OD450 strictly below 1?
# output false (0)
